Values compiled from PubChem BioAssay (EPA / NIEHS).

Read-out: Secreted IgG (sIgG), gene 3500
assay.remarks: BSK_BT_sIgG: BioMAP Diversity Plus: BT Assay for Secreted IgG (sIgG) Biomarker Activity (AID 2284226)
study.conditions: primary human B cells with PBMC
Activity calls are given as the source filed them. The calls were made as follows: active = hit-call score of the fitted dose curve at least 0.9, where 1 is the maximum; inactive = score below 0.9.
Just give me one of these, please: active, inactive

// known answers, use as guide
structure.smiles: O=S(=O)(c1ccccc1)c1ccccc1
group.label: inactive
--
structure.smiles: CCCCCCCCCCCC#N
group.label: inactive
--
structure.smiles: Nc1ccc(-c2ccc(N)c(N)c2)cc1N
group.label: active
--
structure.smiles: CC(=O)/C=C/c1ccccc1
group.label: active

Please share the test call associated with O=c1[nH]c(Cl)c(Cl)cc1Cl . inactive

Please share the test call associated with Oc1cc(Cl)ccc1Cl . inactive

Please share the test call associated with CCCOC(=O)c1ccccc1C(=O)OCCC . active

Please share the test call associated with CNC(=O)Oc1cc(C)c(SC)c(C)c1 . active

Please share the test call associated with CC(C)CCCCCCCOP(=O)(Oc1ccccc1)Oc1ccccc1 . active

---

Read-out: Vascular cell adhesion molecule 1 (VCAM1), VCAM1 (gene 7412)
assay.remarks: BSK_hDFCGF_VCAM1: BioMAP Diversity Plus: hDFCGF Assay for Vascular cell adhesion molecule 1 (VCAM1) Biomarker Activity (AID 2283065);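 as to AC50: VCAM-1 protein level quantified by ELISA after 24 h chemical exposure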
study.conditions: primary human foreskin fibroblasts; actives raise or lower the signal
Activity calls are given as the source filed them. The calls were made as follows: active = hit-call score of the fitted dose curve at least 0.9, where 1 is the maximum; inactive = score below 0.9.
result.type: AC50

Use these answered entries as a reference point.
compound: O=C(O)CCCc1ccc(N(CCCl)CCCl)cc1
AC50: inactive
//
compound: Cc1ccc(OP(=O)(Oc2ccc(C)cc2)Oc2ccc(C)cc2)cc1 (tested in a mixture with another compound)
AC50: inactive
//
compound: N#CCCCCC#N
AC50: inactive
//
compound: O=[N+]([O-])O
AC50: inactive
//
compound: O=C(CCl)c1ccccc1
AC50: 2.56 µM (active)
//
compound: O=C1C(Cl)=C(Cl)C(=O)C(Cl)=C1Cl
AC50: 11.1 µM (active)

In the following, a different compound is considered.
// returns reported AC50 for input CC(C)(c1cc(Cl)c(O)c(Cl)c1)c1cc(Cl)c(O)c(Cl)c1 10.5 µM (active)

---

assay.remarks: BSK_hDFCGF_Proliferation: Cell Proliferation Assessment in the BioMAP Diversity Plus: hDFCGF Assay (AID 2283059);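 also: curves fitted for both rise and fall of signal versus DMSO baseline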
study.conditions: primary human foreskin fibroblasts
Active and inactive are the calls of the source. Rule for the calls: active = hit-call score of the fitted dose curve at least 0.9, where 1 is the maximum; inactive = score below 0.9.
Just give me one of these, please: YES for active, NO for inactive

compound: O=S(=O)(c1ccccc1)c1ccccc1
group.label: NO
//
compound: O=C1C(Cl)=C(Cl)C(=O)C(Cl)=C1Cl
group.label: YES
//
compound: CC(C)(c1cc(Cl)c(O)c(Cl)c1)c1cc(Cl)c(O)c(Cl)c1
group.label: YES
//
compound: CNC(=O)Oc1cc(C)c(SC)c(C)c1
group.label: NO
//
compound: COC(C)(C)CCC[C@H](C)C/C=C/C(C)=C/C(=O)OC(C)C
group.label: YES
//
compound: CCC(C)c1cc([N+](=O)[O-])cc([N+](=O)[O-])c1OC(=O)C=C(C)C (stereo not drawn)
group.label: YES

Please share the test call associated with O=C(CCl)c1ccccc1 . YES

Please share the test call associated with O=c1[nH]c(Cl)c(Cl)cc1Cl . NO

Please share the test call associated with CCCOC(=O)c1ccccc1C(=O)OCCC . NO

Please share the test call associated with CC(C)COP(=O)(OCC(C)C)OCC(C)C . NO

Please share the test call associated with C=CC(=O)OCC(CC)CCCC (stereo not drawn) . YES

Please share the test call associated with COCC(=O)N(c1c(C)cccc1C)N1CCOC1=O . NO

Please share the test call associated with CC(C)CCCCCCCOC(=O)c1ccccc1C(=O)OCCCCCCCC(C)C . NO

---

Read-out: Human Leukocyte Antigen - DR isotype (HLADR), HLA-DRA (gene 3122)
assay.remarks: BSK_BE3C_HLADR: BioMAP Diversity Plus: BE3C Assay for Human Leukocyte Antigen - DR isotype (HLADR) Biomarker Activity (AID 2283032)
study.conditions: primary human bronchial epithelial cells; actives raise or lower the signal
Procedure: BSK_BE3C is a cell-based, multiplexed-readout assay that uses bronchial epithelial cell, a human lung primary cell, with measurements taken at 24 hours after chemical dosing in a 96-well plate.BSK_BE3C_HLADR is an assay component measured in the BSK_BE3C assay. It measures HLA-DR antibody related to regulation of gene expression using ELISA technology.Data from the assay component BSK_BE3C_HLADR was analyzed into 1 assay endpoint. […]
The source made the active and inactive calls. How the source made its calls: active means hit-call score of the fitted dose curve at least 0.9, where 1 is the maximum; inactive means score below 0.9.
Just give me one of these, please: active, inactive

// known answers, use as guide
molecule: CCCCCCCCCCCC#N
group.label: inactive
//
molecule: CC(C)CCCCCCCOP(=O)(Oc1ccccc1)Oc1ccccc1
group.label: active
//
molecule: CCc1cc(C)cc(CC)c1-c1c(OC(=O)C(C)(C)C)n2n(c1=O)CCOCC2
group.label: active
//
molecule: COc1ccc(CO)cc1
group.label: inactive
//
molecule: Clc1ccc(-c2ccccc2)cc1
group.label: inactive

Please share the test call associated with COC(C)(C)CCC[C@H](C)C/C=C/C(C)=C/C(=O)OC(C)C . active

Please share the test call associated with CC(C)(C)C(O)C(Oc1ccc(-c2ccccc2)cc1)n1cncn1 (configuration not stated) . inactive

Please share the test call associated with O=c1c2ccccc2c(=O)c2c1cc(Cl)c1[nH]c3c([nH]c12)c(Cl)cc1c(=O)c2ccccc2c(=O)c13 . inactive

Please share the test call associated with N#CCCCCC#N . inactive

Please share the test call associated with C=CC(=O)OCC(CC)CCCC (configuration not stated) . inactive

Please share the test call associated with O=[N+]([O-])O . inactive

Please share the test call associated with Cc1ccc(OP(=O)(Oc2ccc(C)cc2)Oc2ccc(C)cc2)cc1 (tested in a mixture with another compound) . inactive

---

tested.on: Cellular tumor antigen p53 (Homo sapiens) (UniProt P04637)
Sequence (P04637 whole entry, looked up): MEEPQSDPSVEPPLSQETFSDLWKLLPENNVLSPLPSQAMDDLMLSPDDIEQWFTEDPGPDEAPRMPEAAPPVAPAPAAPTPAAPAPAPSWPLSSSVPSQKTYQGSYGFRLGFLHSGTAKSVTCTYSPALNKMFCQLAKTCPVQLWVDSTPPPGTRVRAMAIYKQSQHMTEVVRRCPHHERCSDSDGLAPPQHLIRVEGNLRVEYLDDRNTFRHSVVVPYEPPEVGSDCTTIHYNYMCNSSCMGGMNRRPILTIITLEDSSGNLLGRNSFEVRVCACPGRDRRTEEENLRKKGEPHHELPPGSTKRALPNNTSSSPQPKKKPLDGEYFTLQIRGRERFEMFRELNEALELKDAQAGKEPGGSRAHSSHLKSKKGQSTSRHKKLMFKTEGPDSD
assay.remarks: TOX21_p53_BLA_p2_ratio: Tox21 HCT-116 p53 Agonism Beta-lactamase Assay, Ratio, Phase 2 (AID 2283592)
Records with an inconclusive call do not appear. Calls of active or inactive are those of the source. How the source made its calls: active means hit-call score of the fitted dose curve at least 0.9, where 1 is the maximum; inconclusive means response in the unintended direction; inactive means score below 0.9.
Just give me one of these, please: True (active), False (inactive)

// known answers, use as guide
molecule: Nc1ccccc1C(=O)Oc1ccc2ccccc2c1
tested.on: Cellular tumor antigen p53 (Homo sapiens) (UniProt P04637)
group.label: False

molecule: CC(C)(O)C(Cl)(Cl)Cl
tested.on: Cellular tumor antigen p53 (Homo sapiens) (UniProt P04637)
group.label: False

molecule: Nc1ccccc1
tested.on: Cellular tumor antigen p53 (Homo sapiens) (UniProt P04637)
group.label: False

Please share the test call associated with COc1ccc2c(c1)C13CCCC[C@@H]1C(C2)N(C)CC3 (some centres undefined) . False

---

assay.remarks: CEETOX_H295R_DOC: CeeTox H295R High-throughput Steroidogenesis Assay for DOC (AID 2283439)
study.conditions: actives raise or lower the signal
Active and inactive are the calls of the source. The calls were made as follows: active = hit-call score of the fitted dose curve at least 0.9, where 1 is the maximum; inactive = score below 0.9.
result.type: AC50

Use these answered entries as a reference point.
compound: c1ccc(Nc2ccc3ccccc3c2)cc1
AC50: inactive
--
compound: Oc1cc(Cl)ccc1Cl
AC50: inactive
--
compound: CNC(=O)Oc1cc(C)c(SC)c(C)c1
AC50: inactive
--
compound: CC(Cc1ccc(C(C)(C)C)cc1)CN1C[C@@H](C)O[C@@H](C)C1 (stereo partly specified)
AC50: 9.92 µM (active)
--
compound: C=CC(=O)OCCO
AC50: inactive

In the following, a different compound is considered.
// returns reported AC50 for input Cc1ccc(OP(=O)(Oc2ccc(C)cc2)Oc2ccc(C)cc2)cc1 (tested in a mixture with another compound) inactive

---

Read-out: Interferon-gamma inducible Protein 10 (IP10), CXCL10 (gene 3627)
assay.remarks: BSK_BE3C_IP10: BioMAP Diversity Plus: BE3C Assay for Interferon-gamma inducible Protein 10 (IP10) Biomarker Activity (AID 2283034)
study.conditions: primary human bronchial epithelial cells; actives raise or lower the signal
The source made the active and inactive calls. The calls were made as follows: active = hit-call score of the fitted dose curve at least 0.9, where 1 is the maximum; inactive = score below 0.9.
Just give me one of these, please: true (1) = active, false (0) = inactive

molecule: COc1ccc(CO)cc1
group.label: false (0)

molecule: C=CC(=O)OCC(CC)CCCC (stereo not drawn)
group.label: false (0)

molecule: CCCCCCCCCCCC#N
group.label: false (0)

Please share the test call associated with Oc1cc(Cl)ccc1Cl . false (0)

Please share the test call associated with O=[N+]([O-])C=Cc1ccccc1 . true (1)

Please share the test call associated with COC(C)(C)CCC[C@H](C)C/C=C/C(C)=C/C(=O)OC(C)C . true (1)

Please share the test call associated with O=c1c2ccccc2c(=O)c2c1cc(Cl)c1[nH]c3c([nH]c12)c(Cl)cc1c(=O)c2ccccc2c(=O)c13 . false (0)
